Target: Focal adhesion kinase 1 (Homo sapiens, UniProt Q05397); further: in the data inactive means no Kd found up to 30 µM
Sequence (Q05397 whole entry): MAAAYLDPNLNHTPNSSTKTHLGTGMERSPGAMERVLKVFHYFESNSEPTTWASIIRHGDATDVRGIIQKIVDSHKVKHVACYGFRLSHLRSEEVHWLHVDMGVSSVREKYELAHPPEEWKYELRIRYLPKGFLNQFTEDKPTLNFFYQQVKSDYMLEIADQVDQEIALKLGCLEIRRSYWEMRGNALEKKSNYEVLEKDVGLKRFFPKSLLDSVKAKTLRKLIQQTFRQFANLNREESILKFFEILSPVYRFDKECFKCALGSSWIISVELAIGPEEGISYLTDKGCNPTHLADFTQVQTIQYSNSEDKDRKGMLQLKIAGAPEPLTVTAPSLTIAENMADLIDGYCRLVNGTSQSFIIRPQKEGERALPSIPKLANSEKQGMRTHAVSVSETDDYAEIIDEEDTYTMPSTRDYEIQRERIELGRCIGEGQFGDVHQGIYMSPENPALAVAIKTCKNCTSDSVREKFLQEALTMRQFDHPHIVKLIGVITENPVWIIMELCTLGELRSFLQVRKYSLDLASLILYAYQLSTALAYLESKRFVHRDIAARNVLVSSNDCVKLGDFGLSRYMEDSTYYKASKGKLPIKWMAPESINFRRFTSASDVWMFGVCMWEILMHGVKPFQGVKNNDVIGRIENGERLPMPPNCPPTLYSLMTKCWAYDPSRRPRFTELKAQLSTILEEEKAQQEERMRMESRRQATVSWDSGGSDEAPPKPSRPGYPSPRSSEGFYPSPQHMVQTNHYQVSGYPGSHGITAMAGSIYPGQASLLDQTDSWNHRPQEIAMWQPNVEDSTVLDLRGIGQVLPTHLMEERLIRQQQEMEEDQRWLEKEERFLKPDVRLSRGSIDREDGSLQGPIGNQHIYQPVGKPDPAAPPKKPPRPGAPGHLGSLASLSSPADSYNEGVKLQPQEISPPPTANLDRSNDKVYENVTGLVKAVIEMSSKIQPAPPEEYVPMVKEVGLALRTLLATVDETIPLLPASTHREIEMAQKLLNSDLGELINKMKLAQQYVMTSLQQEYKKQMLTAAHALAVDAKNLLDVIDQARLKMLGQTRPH
Calls of active or inactive are those of the source.
Pick one: TRUE = active, FALSE = inactive

Would you please look over these solved cases?
>  <ITEM SMILES>
C[C@@H](NC(=O)c1ncnc(N)c1Cl)c1ncc(C(=O)Nc2cc(C(F)(F)F)c(Cl)cn2)s1

>  <LABEL>
FALSE

$$$$
>  <ITEM SMILES>
NC(=O)Nc1cc(-c2cccc(F)c2)sc1C(=O)N[C@H]1CCCNC1

>  <LABEL>
TRUE

$$$$
>  <ITEM SMILES>
COCc1c(-c2ccc(NC(=O)Nc3cc(C(F)(F)F)ccc3F)c(F)c2)c2c(N)ncnn2c1CN1CCOCC1

>  <LABEL>
FALSE

$$$$
>  <ITEM SMILES>
COc1ncc(-c2ccc3nccc(-c4ccnnc4)c3c2)cc1NS(=O)(=O)c1ccc(F)cc1F

>  <LABEL>
FALSE

$$$$
>  <ITEM SMILES>
NC1(c2ccc(-c3nc4ccn5c(=O)[nH]nc5c4cc3-c3ccccc3)cc2)CCC1

>  <LABEL>
FALSE

$$$$

Problem: Assay outcome for C#Cc1cccc(Nc2ncnc3cc(OC)c(OCCCCCCC(=O)NO)cc23)c1 : what was it?
Result: FALSE

Problem: Assay outcome for CC(C)(C)c1nc(-c2cccc(NS(=O)(=O)c3c(F)cccc3F)c2F)c(-c2ccnc(N)n2)s1 : what was it?
Result: FALSE

Problem: Assay outcome for CNC(=O)c1nn(C)c2c1C(C)(C)Cc1cnc(Nc3ccc(N4CCN(C)CC4)cc3)nc1-2 : what was it?
Result: FALSE

---

Target: Tyrosine-protein kinase FRK (Homo sapiens, UniProt P42685); further: in the data inactive means no Kd found up to 30 µM
Sequence (P42685 whole entry): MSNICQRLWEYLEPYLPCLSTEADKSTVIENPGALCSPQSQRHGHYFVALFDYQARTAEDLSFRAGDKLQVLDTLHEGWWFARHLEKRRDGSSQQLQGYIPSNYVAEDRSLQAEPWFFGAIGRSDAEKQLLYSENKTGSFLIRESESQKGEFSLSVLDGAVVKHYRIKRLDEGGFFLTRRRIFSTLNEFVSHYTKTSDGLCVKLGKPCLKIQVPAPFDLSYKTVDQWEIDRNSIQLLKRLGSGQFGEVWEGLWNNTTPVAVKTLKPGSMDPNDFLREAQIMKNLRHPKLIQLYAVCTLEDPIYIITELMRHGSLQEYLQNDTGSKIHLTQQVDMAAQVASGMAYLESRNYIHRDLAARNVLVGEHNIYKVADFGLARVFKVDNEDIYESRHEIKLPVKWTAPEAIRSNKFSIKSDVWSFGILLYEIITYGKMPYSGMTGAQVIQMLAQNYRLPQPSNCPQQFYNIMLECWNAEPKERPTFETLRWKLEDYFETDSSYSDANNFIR
Counter-ions that a name gives are not always drawn. Activity calls are given as the source filed them.
Pick one: active, inactive

Would you please look over these solved cases?
>  <COMPOUND>
CCS(=O)(=O)N1CCN(c2ccc(Nc3ncc(C(N)=O)c(NC4CC4)n3)cc2)CC1 [Cerdulatinib Hydrochloride]

>  <LABEL>
inactive

$$$$
>  <COMPOUND>
Cn1cc(-c2cnc3ccc4ccc(CS(=O)(=O)NCc5ccccn5)cc4c(=O)c3c2)cn1 [MK-8033]

>  <LABEL>
inactive

$$$$
>  <COMPOUND>
C[C@@H](Oc1cc(C(=O)Nc2ccc(C(=O)N3CCN(C)CC3)cc2)nnc1N)c1c(Cl)ccc(F)c1Cl

>  <LABEL>
inactive

$$$$
>  <COMPOUND>
FC(F)(F)c1ccc(/C=C/c2nc(COc3ccc(CCCCn4ccnn4)cc3)co2)cc1 [MUBRITINIB]

>  <LABEL>
inactive

$$$$
>  <COMPOUND>
O=C1NC(=O)[C@@H](c2cn3c4c(cccc24)CCC3)[C@@H]1c1c[nH]c2ccccc12 [TIVANTINIB]

>  <LABEL>
inactive

$$$$

Problem: Assay outcome for CCn1cc(-c2ccnc3[nH]c(-c4cccc(CN(C)C)c4)cc23)c(-c2ccc(NC(=O)N(C)C)cc2)n1 [GSK-1070916] : what was it?
Result: inactive

Problem: Assay outcome for CNC(=O)c1cccc2cc(Oc3ccnc4cc(OCC5(N)CC5)c(OC)cc34)ccc12 [LUCITANIB] : what was it?
Result: inactive

---

Biological target: Discoidin domain-containing receptor 2 (Homo sapiens); further: in the data inactive means no Kd found up to 30 µM
Sequence (Q16832 whole entry, the tested form may be a part): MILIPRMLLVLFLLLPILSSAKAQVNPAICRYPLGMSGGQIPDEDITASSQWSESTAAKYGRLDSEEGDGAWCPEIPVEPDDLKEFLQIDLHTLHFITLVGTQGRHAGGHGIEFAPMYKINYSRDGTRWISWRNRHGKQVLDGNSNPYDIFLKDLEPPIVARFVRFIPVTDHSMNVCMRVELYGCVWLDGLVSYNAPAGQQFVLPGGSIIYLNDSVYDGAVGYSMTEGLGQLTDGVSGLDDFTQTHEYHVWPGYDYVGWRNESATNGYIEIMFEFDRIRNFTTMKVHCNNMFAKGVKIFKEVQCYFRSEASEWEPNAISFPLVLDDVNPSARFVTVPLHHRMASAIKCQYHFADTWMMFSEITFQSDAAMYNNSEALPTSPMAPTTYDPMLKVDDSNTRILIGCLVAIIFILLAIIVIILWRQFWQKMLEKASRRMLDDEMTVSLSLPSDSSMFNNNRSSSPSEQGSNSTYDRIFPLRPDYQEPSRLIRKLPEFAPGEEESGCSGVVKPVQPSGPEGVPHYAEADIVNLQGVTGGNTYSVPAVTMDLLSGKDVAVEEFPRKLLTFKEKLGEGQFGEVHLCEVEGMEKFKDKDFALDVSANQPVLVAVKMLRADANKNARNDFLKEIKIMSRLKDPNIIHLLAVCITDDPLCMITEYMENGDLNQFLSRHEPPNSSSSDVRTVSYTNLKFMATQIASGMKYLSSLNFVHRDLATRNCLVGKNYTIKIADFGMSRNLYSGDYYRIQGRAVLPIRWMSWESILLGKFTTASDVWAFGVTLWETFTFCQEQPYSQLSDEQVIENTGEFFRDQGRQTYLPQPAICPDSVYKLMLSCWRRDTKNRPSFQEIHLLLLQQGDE
Activity calls are given as the source filed them.
Pick one: 1 (yes) = active, 0 (no) = inactive

>  <COMPOUND>
COc1c(OCCCN2CCOCC2)ccc2c1N=C(NC(=O)c1cnc(N)nc1)N1CCN=C21

>  <LABEL>
0 (no)

$$$$
>  <COMPOUND>
CCCCCCCCCCCCCCCCCCOP(=O)([O-])OC1CC[N+](C)(C)CC1

>  <LABEL>
0 (no)

$$$$
>  <COMPOUND>
CN(C[C@@H]1COCCO1)S(=O)(=O)Nc1ccc2ccc3ncc(-c4cnn(C)c4)cc3c(=O)c2c1

>  <LABEL>
0 (no)

$$$$
>  <COMPOUND>
COCc1c(-c2ccc(NC(=O)Nc3cc(C(F)(F)F)ccc3F)c(F)c2)c2c(N)ncnn2c1CN1CCOCC1

>  <LABEL>
1 (yes)

$$$$

Problem: Assay outcome for FC(F)(F)c1ccc(/C=C/c2nc(COc3ccc(CCCCn4ccnn4)cc3)co2)cc1 : what was it?
Result: 0 (no)

Problem: Assay outcome for CO[C@H]1C[C@@H]2CC[C@@H](C)[C@@](O)(O2)C(=O)C(=O)N2CCCC[C@H]2C(=O)O[C@H]([C@H](C)C[C@@H]2CC[C@@H](OP(C)(C)=O)[C@H](OC)C2)CC(=O)[C@H](C)/C=C(\C)[C@@H](O)[C@@H](OC)C(=O)[C@H](C)C[C@H](C)/C=C/C=C/C=C/1C : what was it?
Result: 0 (no)

Problem: Assay outcome for COc1cc([C@@H]2c3cc4c(cc3[C@H](O)[C@H]3COC(=O)[C@@H]23)OCO4)cc(OC)c1OC : what was it?
Result: 0 (no)
